- Test system: T47D cells expressing mutant PI3Ka (H1047R)
- Experiment: In vitro cell proliferation, T47D cells (CellTiter-Glo)
- Type: cell-based
- Assay conditions: inhibition of proliferation, 72 hours, read-out: Avg T-47D EC50
pEC50: −log10 of the molar value.
Provide the reported pEC50 of each item.

Data request: Looking for the measured pEC50 of Cc1cc(C(C)Nc2ccccc2C(=O)O)c2cc(N3C[C@@H]4[C@@H](C#N)[C@@H]4C3)n(C)c(=O)c2c1 (some centres unmarked) [Example 16] , can you help?
Data returned: 4.82 to 5.70

Data request: // same read-out, input: Cc1cc([C@@H](C)Nc2ccccc2C(=O)O)c2cc(N3CC(C)(C#N)C3)n(C)c(=O)c2c1 [Example 165]
Data returned: 5.70 to 6.30

Data request: // same read-out, input: Cc1cc([C@@H](C)Nc2ccccc2C(=O)O)c2cc(C34CC(c5ccc(F)cc5)(C3)C4)n(C)c(=O)c2c1 [Example 321]
Data returned: 6.30 to 9.00

Data request: // same read-out, input: CC(Nc1ccccc1C(=O)O)c1cc(F)cc2c(=O)n(C)c(-c3ccc(OC4CC(F)C4)nc3)cc12 (centres unmarked) [Example 448]
Data returned: 6.30 to 9.00

Data request: // same read-out, input: Cc1cc(C(C)Nc2cccc(C#N)c2C(=O)O)c2cc(N3CCN(CC(F)(F)F)CC3)n(C)c(=O)c2c1 (centres unmarked) [Example 354]
Data returned: 4.82 to 5.70

Data request: // same read-out, input: Cc1cc(C(C)Nc2ccccc2C(=O)O)c2cc(N3CC(Cl)C3)n(C)c(=O)c2c1 (single isomer, unassigned) [Example 79]
Data returned: 6.30 to 9.00

Data request: // same read-out, input: Cc1cc([C@@H](C)Nc2ccccc2C(=O)O)c2cc(-c3cc(F)c4nn(C)cc4c3)n(C)c(=O)c2c1 [Example 365]
Data returned: 6.30 to 9.00

Data request: // same read-out, input: Cc1cc(C(C)Nc2ccccc2C(=O)O)c2cc(N3Cc4cccnc4C3)n(C)c(=O)c2c1 (single isomer, unassigned) [Example 18]
Data returned: 4.82 to 5.70

Data request: // same read-out, input: C[C@@H](Nc1ccccc1C(=O)O)c1cc(F)cc2c(=O)n(C)c(-c3cnc(-c4cc(F)c(F)cc4F)c(F)c3)cc12 [Example 548]
Data returned: 6.30 to 9.00

Data request: // same read-out, input: Cc1ccc(C2CN(c3cc4c([C@@H](C)Nc5cccc(F)c5C(=O)O)cc(F)cc4c(=O)n3C)C2)cn1 [Example 409]
Data returned: 5.70 to 6.30

Data request: // same read-out, input: C[C@@H](Nc1ccccc1C(=O)O)c1cc(F)cc2c(=O)n(C)c(-c3ccc(OC4COC4)nc3)cc12 [Example 507]
Data returned: 5.70 to 6.30

Data request: // same read-out, input: Cc1cc(-c2ncc(-c3cc4c([C@@H](C)Nc5ccccc5C(=O)O)cc(F)cc4c(=O)n3C)cc2F)on1 [Example 520]
Data returned: 6.30 to 9.00

Data request: // same read-out, input: Cc1cc(C(C)Nc2ccccc2C(=O)O)c2cc(-c3ccc(C)nc3)n(C)c(=O)c2c1 (single isomer, unassigned) [Example 21]
Data returned: 6.30 to 9.00

Data request: // same read-out, input: Cc1cc(C(C)Nc2ccccc2C(=O)O)c2cc(C#Cc3cccc(Cl)c3)n(C)c(=O)c2c1 (single isomer, unassigned) [Example 144]
Data returned: < 4.82

----------
- System: phosphorylation of AKT (pAKT) in T47D cells expressing mutant PI3Ka (H1047R)
- Experiment: In vitro cell pAKT (Ser473) HTRF, T47D cells
- Format: cell-based
- Assay conditions: cellular pAKT, T47D cells, mutant PI3Ka (H1047R), 6 hours; read-out: Avg T-47D IC50
Provide the reported IC50 of each item.

Data request: Looking for the measured IC50 of C[C@@H](Nc1cccc(F)c1C(=O)O)c1cc(F)cc2c(=O)n(C)c(C3CC3(F)F)cc12 (single isomer, unassigned) [Example 479] , can you help?
Data returned: 2000 to 15000 nM

Data request: // same read-out, input: CC(Nc1ccccc1C(=O)O)c1cc(F)cc2c(=O)n(C)c(-c3cnc(-c4ccc(F)cc4F)c(F)c3)cc12 (stereo not drawn) [Example 560]
Data returned: 1 to 500 nM

Data request: // same read-out, input: Cc1cc(C(C)Nc2ccccc2C(=O)O)c2cc(N3CCN4C(=O)CCC4C3)n(C)c(=O)c2c1 (single isomer, unassigned) [Example 124]
Data returned: 2000 to 15000 nM

Data request: // same read-out, input: Cc1cc([C@@H](C)Nc2cccc(F)c2C(=O)O)c2cc(C3CC3(F)F)n(C)c(=O)c2c1 (single isomer, unassigned) [Example 420]
Data returned: 2000 to 15000 nM

Data request: // same read-out, input: Cc1cc(C(C)Nc2ccccc2C(=O)O)c2cc(N3C[C@H]4CCCC[C@@H]4C3)n(C)c(=O)c2c1 (single isomer, unassigned) [Example 115]
Data returned: > 15000 nM

Data request: // same read-out, input: C[C@@H](Nc1ccccc1C(=O)O)c1cc(F)cc2c(=O)n(C)c(-c3cnc(-c4cn(C)nc4F)c(F)c3)cc12 [Example 543]
Data returned: 1 to 500 nM

----------
- Test system: SKBR3 cells express WT PI3Ka
- Experiment: In vitro cell proliferation, SKBR3 cells (CellTiter-Glo)
- Format: cell-based
- Assay conditions: Homo sapiens, SK-BR-3, 72 h, inhibition of proliferation
Value type: EC50

Data request: Looking for the measured EC50 of `Cc1cc([C@@H](C)Nc2ccccc2C(=O)O)c2cc(OCc3ccc(C)nc3)n(C)c(=O)c2c1` , can you help?
Data returned: > 15 µM

Data request: // same read-out, input: `Cc1cc([C@@H](C)Nc2ccccc2C(=O)O)c2cc(N3CCN(c4ccccc4F)CC3)n(C)c(=O)c2c1`
Data returned: > 15 µM

Data request: // same read-out, input: `C[C@@H](Nc1ccccc1C(=O)O)c1cc(F)cc2c(=O)n(C)c(C34CC(c5cnn(C(F)F)c5)(C3)C4)c(F)c12`
Data returned: 2 to 15 µM

Data request: // same read-out, input: Cc1cc(C(C)Nc2ccccc2C(=O)O)c2cc(N3C[C@H]4CCCC[C@@H]4C3)n(C)c(=O)c2c1 (single isomer, unassigned)
Data returned: > 15 µM

Data request: // same read-out, input: `C[C@@H](Nc1cccc(F)c1C(=O)O)c1cc(F)cc2c(=O)n(C)c(-c3cnc(-c4cncc(F)c4)c(F)c3)cc12`
Data returned: > 15 µM

Data request: // same read-out, input: `Cc1cc([C@@H](C)Nc2ccccc2C(=O)O)c2cc(-c3ccc(C(C)(F)F)nc3)n(C)c(=O)c2c1`
Data returned: > 15 µM

Data request: // same read-out, input: `Cc1cc([C@@H](C)Nc2ccccc2C(=O)O)c2cc(N3CCn4cc(C)nc4C3)n(C)c(=O)c2c1`
Data returned: > 15 µM

----------
- Test system: phosphorylation of AKT (pAKT) in T47D cells expressing mutant PI3Ka (H1047R)
- Experiment: In vitro cell pAKT (Ser473) HTRF, T47D cells
- Format: cell-based
- Assay conditions: Homo sapiens, T47D, 6 h, cellular pAKT, T47D cells, mutant PI3Ka (H1047R), 6 hours; read-out: Avg T-47D IC50
pIC50: −log10 of the molar value.
Value type: pIC50

Data request: Looking for the measured pIC50 of `CCOc1ncc(-c2cc3c([C@@H](C)Nc4ccccc4C(=O)O)cc(C)cc3c(=O)n2C)cc1F` , can you help?
Data returned: 6.30 to 9.00

Data request: // same read-out, input: `Cc1cc([C@@H](C)Nc2ccccc2C(=O)O)c2cc(N3CCN(c4cccnc4C#N)CC3)n(C)c(=O)c2c1`
Data returned: 6.30 to 9.00

Data request: // same read-out, input: `Cc1ncc(-c2c(F)c3c([C@@H](C)Nc4ccccc4C(=O)O)cc(F)cc3c(=O)n2C)s1`
Data returned: 6.30 to 9.00

Data request: // same read-out, input: Cc1cc(C(C)Nc2ccccc2C(=O)O)c2cc(N3Cc4ccc(F)cc4C3)n(C)c(=O)c2c1 (single isomer, unassigned)
Data returned: 6.30 to 9.00

Data request: // same read-out, input: `Cc1ncc(-c2ncc(-c3cc4c([C@@H](C)Nc5cccc(F)c5C(=O)O)cc(F)cc4c(=O)n3C)cc2F)cc1F`
Data returned: 6.30 to 9.00

Data request: // same read-out, input: C[C@@H](Nc1ccccc1C(=O)O)c1cc(F)cc2c(=O)n(C)c(C3C[C@@H]3C(F)(F)F)cc12 (single isomer, unassigned)
Data returned: 6.30 to 9.00

Data request: // same read-out, input: COC[C@@H]1CC1c1cc2c([C@@H](C)Nc3ccccc3C(=O)O)cc(C)cc2c(=O)n1C (single isomer, unassigned) [Example 308]
Data returned: 6.30 to 9.00

Data request: // same read-out, input: Cc1cc([C@@H](C)Nc2ccccc2C(=O)O)c2cc(C3C[C@H]3C)n(C)c(=O)c2c1 (some centres unmarked) [Example 305]
Data returned: 6.30 to 9.00

Data request: // same read-out, input: Cc1cc(C(C)Nc2ccccc2C(=O)O)c2cc(N3CC(Cl)C3)n(C)c(=O)c2c1 (centres unmarked)
Data returned: 6.30 to 9.00

Data request: // same read-out, input: Cc1cc([C@@H](C)Nc2ccccc2C(=O)O)c2cc([C@H]3C[C@@H]3C(C)(C)O)n(C)c(=O)c2c1 (single isomer, unassigned)
Data returned: 6.30 to 9.00

Data request: // same read-out, input: `CCON1CC2CCC(C1)N2c1cc2c([C@@H](C)Nc3ccccc3C(=O)O)cc(F)cc2c(=O)n1C`
Data returned: 6.30 to 9.00

Data request: // same read-out, input: `Cc1cc([C@@H](C)Nc2ccccc2C(=O)O)c2cc(N3CCN(c4nccs4)CC3)n(C)c(=O)c2c1`
Data returned: 6.30 to 9.00

Data request: // same read-out, input: `Cc1ncc(N2CCN(c3cc4c([C@@H](C)Nc5ccccc5C(=O)O)cc(F)cc4c(=O)n3C)CC2)s1`
Data returned: 6.30 to 9.00

Data request: // same read-out, input: C[C@@H](Nc1cccc(F)c1C(=O)O)c1cc(F)cc2c(=O)n(C)c(C3C[C@@H]3C(F)(F)F)cc12 (single isomer, unassigned)
Data returned: 6.30 to 9.00
